target: HLA-DR DRB5*01:01 (Homo sapiens, UniProt P01903+Q30154); experiment: biochemical; format: binding; conditions: read-out: Binding capacity/IC50 (nM) DRB5*01:01
Readout Label: IC50 (nM)
The reply should contain only the number, in nM.

Prompt line: Give the measured IC50 for CC[C@H](C)[C@H](NC(=O)[C@H](Cc1ccc(O)cc1)NC(=O)CNC(=O)[C@H](CO)NC(=O)[C@H](C)NC(=O)[C@@H](NC(=O)[C@H](Cc1c[nH]cn1)NC(=O)[C@@H](NC(=O)[C@H](C)NC(=O)[C@@H](NC(=O)[C@H](CC(C)C)NC(=O)[C@@H](NC(=O)[C@@H](NC(=O)[C@H](CCCCN)NC(=O)CNC(=O)[C@@H](N)CCC(=O)O)[C@@H](C)CC)[C@@H](C)CC)C(C)C)C(C)C)C(C)C)C(=O)N[C@@H](CCC(=O)O)C(N)=O [integrase(69-85)]
Response line: 523
